// data source = ChEMBL document CHEMBL1938234

Tested on: KB
Assay Text: Cytotoxicity against human KB cells by SRB assay
Format: functional, cell-based
Recorded IC50 by entry
Measure: IC50 (nM)

| Compound | Experimental Target | Measure | Recorded Value |
| --- | --- | --- | --- |
| CCC(C)CC(C)/C=C(C)/C=C/C(=O)C1=C2C3=COC([C@H]4C(=O)C[C@H](O)C[C@@H]4C)=CC3=CC(=O)[C@@]2(C)OC1=O (stereo partly specified) [LONGIROSTRERONE D] | KB | IC50 | 6380 |
| Cc1c2ccncc2c(C)c2c1[nH]c1ccccc12 [ELLIPTECINE] | KB | IC50 | 1250 |
| CCC(C)CC(C)/C=C(C)/C=C/C(=O)[C@H]1C(=O)O[C@@]2(C)C(=O)C=C3C=C([C@H]4C(=O)C[C@H](O)C[C@@H]4C)OC=C3[C@@H]12 (stereo partly specified) [LONGIROSTRERONEA] | KB | IC50 | 1040 |
| CCC(C)CC(C)/C=C(C)/C=C/C(=O)[C@H]1C(=O)O[C@@]2(C)C(=O)C=C3C=C([C@H]4C(=O)C=CC[C@@H]4C)OC=C3[C@@H]12 (stereo partly specified) [LONGIROSTRERONE C] | KB | IC50 | 230 |
| COc1cccc2c1C(=O)c1c(O)c3c(c(O)c1C2=O)C[C@@](O)(C(=O)CO)C[C@@H]3O[C@H]1C[C@H](N)[C@H](O)[C@H](C)O1 [DOXORUBICIN] | KB | IC50 | 330 |
| CCC(C)CC(C)/C=C(C)/C=C/C(=O)C[C@H]1C2=COC([C@H]3C(=O)C[C@H](O)C[C@@H]3C)=CC2=CC(=O)[C@]1(C)O (stereo partly specified) [LONGIROSTRERONEB] | KB | IC50 | 1520 |
